pIC50 values for the compounds below.
# SUBJECT_OF_TEST: Human recombinant PDE10A (hPDE10A) (Homo sapiens, UniProt Q9Y233)
# Construct: His tag (inferred from metal chelate purification); made in house; host or cells: Sf9 insect cells (baculovirus)
# Sequence (Q9Y233 267-1055): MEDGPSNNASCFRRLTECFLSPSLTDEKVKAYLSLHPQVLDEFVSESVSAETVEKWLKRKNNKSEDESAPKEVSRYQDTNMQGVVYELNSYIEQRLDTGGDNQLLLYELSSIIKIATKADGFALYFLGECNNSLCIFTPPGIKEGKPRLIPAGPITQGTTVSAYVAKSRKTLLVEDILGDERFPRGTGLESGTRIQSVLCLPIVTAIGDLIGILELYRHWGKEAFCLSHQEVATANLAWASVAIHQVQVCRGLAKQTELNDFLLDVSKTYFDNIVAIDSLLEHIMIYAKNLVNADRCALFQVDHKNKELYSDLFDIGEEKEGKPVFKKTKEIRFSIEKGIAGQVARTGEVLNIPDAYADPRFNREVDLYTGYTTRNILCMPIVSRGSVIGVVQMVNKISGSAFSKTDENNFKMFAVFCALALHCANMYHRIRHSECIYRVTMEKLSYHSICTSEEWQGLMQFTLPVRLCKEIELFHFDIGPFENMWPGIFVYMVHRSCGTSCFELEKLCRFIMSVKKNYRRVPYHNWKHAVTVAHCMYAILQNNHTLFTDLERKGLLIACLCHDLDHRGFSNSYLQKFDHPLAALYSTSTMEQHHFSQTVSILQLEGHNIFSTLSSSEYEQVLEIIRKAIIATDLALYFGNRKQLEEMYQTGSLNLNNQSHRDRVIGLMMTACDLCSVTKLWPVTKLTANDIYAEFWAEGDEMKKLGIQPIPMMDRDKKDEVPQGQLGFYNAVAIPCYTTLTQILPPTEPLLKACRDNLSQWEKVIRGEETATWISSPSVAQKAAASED
# ASSAY_METHOD_TEXT: In vitro assay PDE10A, human clone (SPA, 3H-cAMP hydrolysis)
# Assay type: biochemical
# CONDITION_PARAMETERS: hPDE10A2 or rPDE10A2 pIC50, human clone by default (no (r) mark)
# pIC50 is unitless: minus log10 of the molar concentration; print number only

Solved cases below.
O=C(c1ccc2ccccc2n1)N1[C@H]2CC[C@H](c3cc(C(F)F)nc4ncnn34)[C@@H]1CC2; 5.17
Cc1csc(C(=O)N2[C@H]3CC[C@H](c4cc(C(F)F)nc5ncnn45)[C@@H]2CC3)c1; 6.00

// sample `Cc1nc2cc(C(=O)N3[C@H]4CC[C@H](c5cc(C(F)F)nc6ncnn56)[C@@H]3CC4)ccc2o1` , its pIC50 was 5.44

Reported pIC50 of `Cc1cc2ccc(C(=O)N3[C@H]4CC[C@H](c5cc(C(F)F)nc6ncnn56)[C@@H]3CC4)cn2c1` : 6.22
